All figures here come from patent US20050153999A1.

PROTOCOL_SUMMARY: Equilibrium solubility in aqueous solutions containing different concentrations of Captisol
Assay type: physicochemical
PARTICULARS: aqueous solution containing Captisol, 20 °C, pH 5.2, aqueous with cosolvent or surfactant or cyclodextrin, thermodynamic from solid, Captisol 10 % w/v; pH 5.2 citric acid buffered; free form equivalent; 20° C.; read-out: Solubility of Compound I free base at pH 5.2 (citric acid buffered)
ASSAY_ENDPOINT: solubility (µg/mL)
# unit: µg/mL | format: bare number

Can you share its solubility? I mean this molecule: C[C@@H](OC[C@@]1(c2ccccc2)CC[C@]2(CCC(=O)N2)CN1)c1cc(C(F)(F)F)cc(C(F)(F)F)c1 [Compound I free base]
7200

###

PROTOCOL_SUMMARY: Equilibrium solubility in aqueous solutions containing different concentrations of Captisol
Type: physicochemical
PARTICULARS: aqueous solution containing Captisol, 20 °C, pH 5, aqueous buffer, thermodynamic from solid, Captisol 0 % w/v; pH 5 (NaOH adjusted); free form equivalent; ambient temperature (20° C.); read-out: Solubility of Compound I HCl salt at pH 5 (pH adjusted by NaOH)
Structures can show the parent of a compound that is named as a salt.
ASSAY_ENDPOINT: solubility (µg/mL)
# unit: µg/mL | format: bare number

Can you share its solubility? I mean this molecule: C[C@@H](OC[C@@]1(c2ccccc2)CC[C@]2(CCC(=O)N2)CN1)c1cc(C(F)(F)F)cc(C(F)(F)F)c1 [Compound I HCl salt]
50

###

PROTOCOL_SUMMARY: Equilibrium solubility in aqueous solutions containing different concentrations of Captisol
Assay type: physicochemical
PARTICULARS: aqueous solution containing Captisol, 20 °C, pH 7.2, aqueous with cosolvent or surfactant or cyclodextrin, thermodynamic from solid, Captisol 10 % w/v; pH 7.2 phosphate buffered; free form equivalent; 20° C.; read-out: Solubility of Compound I free base at pH 7.2 (phosphate buffered)
ASSAY_ENDPOINT: solubility (mg/mL)
# unit: mg/mL | format: bare number

Can you share its solubility? I mean this molecule: C[C@@H](OC[C@@]1(c2ccccc2)CC[C@]2(CCC(=O)N2)CN1)c1cc(C(F)(F)F)cc(C(F)(F)F)c1 [Compound I free base]
0.29

###

PROTOCOL_SUMMARY: Equilibrium solubility in aqueous solutions containing different concentrations of Captisol
Assay type: physicochemical
PARTICULARS: aqueous solution containing Captisol, 20 °C, pH 7.2, aqueous buffer, thermodynamic from solid, Captisol 0 % w/v; pH 7.2 phosphate buffered; free form equivalent; 20° C.; read-out: Solubility of Compound I free base at pH 7.2 (phosphate buffered)
ASSAY_ENDPOINT: solubility
Kindly write the number and append the unit.

Can you share its solubility? I mean this compound: C[C@@H](OC[C@@]1(c2ccccc2)CC[C@]2(CCC(=O)N2)CN1)c1cc(C(F)(F)F)cc(C(F)(F)F)c1 [Compound I free base]
2 µg/mL

###

PROTOCOL_SUMMARY: Equilibrium solubility in aqueous solutions containing different concentrations of Captisol
Assay type: physicochemical
PARTICULARS: aqueous solution containing Captisol, 20 °C, pH 7.2, aqueous with cosolvent or surfactant or cyclodextrin, thermodynamic from solid, Captisol 2 % w/v; pH 7.2 phosphate buffered; free form equivalent; 20° C.; read-out: Solubility of Compound I free base at pH 7.2 (phosphate buffered)
ASSAY_ENDPOINT: solubility (µg/mL)
# unit: µg/mL | format: bare number

Can you share its solubility? I mean this compound: C[C@@H](OC[C@@]1(c2ccccc2)CC[C@]2(CCC(=O)N2)CN1)c1cc(C(F)(F)F)cc(C(F)(F)F)c1 [Compound I free base]
50

###

PROTOCOL_SUMMARY: Equilibrium solubility in aqueous solutions containing different concentrations of Captisol
Type: physicochemical
PARTICULARS: aqueous solution containing Captisol, 20 °C, pH 5.2, aqueous with cosolvent or surfactant or cyclodextrin, thermodynamic from solid, Captisol 2 % w/v; pH 5.2 citric acid buffered; free form equivalent; 20° C.; read-out: Solubility of Compound I free base at pH 5.2 (citric acid buffered)
ASSAY_ENDPOINT: solubility (µg/mL)
# unit: µg/mL | format: bare number

Can you share its solubility? I mean this compound: C[C@@H](OC[C@@]1(c2ccccc2)CC[C@]2(CCC(=O)N2)CN1)c1cc(C(F)(F)F)cc(C(F)(F)F)c1 [Compound I free base]
2200

###

PROTOCOL_SUMMARY: Equilibrium solubility in aqueous solutions containing different concentrations of Captisol
Format: physicochemical
PARTICULARS: aqueous solution containing Captisol, 20 °C, pH 5, aqueous with cosolvent or surfactant or cyclodextrin, thermodynamic from solid, Captisol 20 % w/v; pH 5 (NaOH adjusted); free form equivalent; 20° C.; read-out: Solubility of Compound I Tosylate salt at pH 5 (pH adjusted by NaOH)
Counter-ions that a name gives are not always drawn.
ASSAY_ENDPOINT: solubility (µg/mL)
# unit: µg/mL | format: bare number

Can you share its solubility? I mean this compound: C[C@@H](OC[C@@]1(c2ccccc2)CC[C@]2(CCC(=O)N2)CN1)c1cc(C(F)(F)F)cc(C(F)(F)F)c1 [Compound I Tosylate salt]
1800

###

PROTOCOL_SUMMARY: Equilibrium solubility in aqueous solutions containing different concentrations of Captisol
Format: physicochemical
PARTICULARS: aqueous solution containing Captisol, 20 °C, pH 5.2, aqueous buffer, thermodynamic from solid, Captisol 0 % w/v; pH 5.2 citric acid buffered; free form equivalent; 20° C.; read-out: Solubility of Compound I free base at pH 5.2 (citric acid buffered)
ASSAY_ENDPOINT: solubility

Can you share its solubility? I mean this molecule: C[C@@H](OC[C@@]1(c2ccccc2)CC[C@]2(CCC(=O)N2)CN1)c1cc(C(F)(F)F)cc(C(F)(F)F)c1 [Compound I free base]
170 µg/mL

###

PROTOCOL_SUMMARY: Equilibrium solubility in aqueous solutions containing different concentrations of Captisol
Assay type: physicochemical
PARTICULARS: aqueous solution containing Captisol, 20 °C, pH 5, aqueous with cosolvent or surfactant or cyclodextrin, thermodynamic from solid, Captisol 5 % w/v; pH 5 (NaOH adjusted); free form equivalent; ambient temperature (20° C.); read-out: Solubility of Compound I HCl salt at pH 5 (pH adjusted by NaOH)
Counter-ions that a name gives are not always drawn.
ASSAY_ENDPOINT: solubility (µg/mL)
# unit: µg/mL | format: bare number

Can you share its solubility? I mean this compound: C[C@@H](OC[C@@]1(c2ccccc2)CC[C@]2(CCC(=O)N2)CN1)c1cc(C(F)(F)F)cc(C(F)(F)F)c1 [Compound I HCl salt]
4700

###

PROTOCOL_SUMMARY: Equilibrium solubility in aqueous solutions containing different concentrations of Captisol
Assay type: physicochemical
PARTICULARS: aqueous solution containing Captisol, 20 °C, pH 5.2, aqueous with cosolvent or surfactant or cyclodextrin, thermodynamic from solid, Captisol 5 % w/v; pH 5.2 citric acid buffered; free form equivalent; 20° C.; read-out: Solubility of Compound I free base at pH 5.2 (citric acid buffered)
Protocol: Captisol® improves the solubility of the compound of Formula I in free base form, HCl salt and tosylate salt. Solubility of the above compounds was determined by equilibrating the powder with aqueous solutions containing different concentration of Captisol® at ambient temperature (20° C.). The solutions were prepared in accordance with methods known to one of skill in the art.
ASSAY_ENDPOINT: solubility (mg/mL)
# unit: mg/mL | format: bare number

Can you share its solubility? I mean this molecule: C[C@@H](OC[C@@]1(c2ccccc2)CC[C@]2(CCC(=O)N2)CN1)c1cc(C(F)(F)F)cc(C(F)(F)F)c1 [Compound I free base]
4.6

###

PROTOCOL_SUMMARY: Equilibrium solubility in aqueous solutions containing different concentrations of Captisol
Format: physicochemical
PARTICULARS: aqueous solution containing Captisol, 20 °C, pH 5, aqueous with cosolvent or surfactant or cyclodextrin, thermodynamic from solid, Captisol 10 % w/v; pH 5 (NaOH adjusted); free form equivalent; 20° C.; read-out: Solubility of Compound I Tosylate salt at pH 5 (pH adjusted by NaOH)
Structures can show the parent of a compound that is named as a salt.
ASSAY_ENDPOINT: solubility (µg/mL)
# unit: µg/mL | format: bare number

Can you share its solubility? I mean this compound: C[C@@H](OC[C@@]1(c2ccccc2)CC[C@]2(CCC(=O)N2)CN1)c1cc(C(F)(F)F)cc(C(F)(F)F)c1 [Compound I Tosylate salt]
940
